test: physchem; details: 23 °C, pH 6.5, fassif, thermodynamic from solid, FaSSIF (pH 6.5) solubility, FaSSIF pH 6.5, dose 5 mg/mL, 2-hour incubation, ambient temperature
Catalogue of compounds with associated solubility
measure.name: solubility

[[record]]
chem_smiles = "COC(=O)N[C@H](C(=O)N[C@@H](Cc1ccc(C#Cc2cnc(N3CC4CCC(C3)N4C3COC3)nc2)cc1)[C@H](CN(Cc1c(F)cc(-c2ccn(C(F)F)n2)cc1F)NC(=O)[C@@H](NC(=O)OC)C(C)(C)C(F)(F)F)OC(=O)CC(C)(C)c1c(CC(=O)O)cccc1OP(=O)(O)O)C(C)(C)C(F)(F)F"
value_reported = "< 1000 µg/mL"

[[record]]
chem_smiles = "C=C1C[C@@H](C(=O)O)N(C(=O)Cc2cc(C)cc(OP(=O)(O)O)c2C(C)(C)CC(=O)O[C@@H](CN(Cc2c(F)cc(-c3ccn(C(F)F)n3)cc2F)NC(=O)[C@@H](NC(=O)OC)C(C)(C)C(F)(F)F)[C@H](Cc2ccc(C#Cc3cnc(N4CC5CCC(C4)N5C4COC4)nc3)cc2)NC(=O)[C@@H](NC(=O)OC)C(C)(C)C(F)(F)F)C1"
value_reported = "3480 µg/mL"

[[record]]
chem_smiles = "COC(=O)N[C@H](C(=O)N[C@@H](Cc1ccc(C#Cc2cnc(N3CC4CCC(C3)N4C3COC3)nc2)cc1)[C@H](CN(Cc1c(F)cc(-c2ccn(C(F)F)n2)cc1F)NC(=O)[C@@H](NC(=O)OC)C(C)(C)C(F)(F)F)OC(=O)CC(C)(C)c1c(CC(=O)O)cc(C)cc1OP(=O)(O)O)C(C)(C)C(F)(F)F"
value_reported = "272 µg/mL"


----------
Recorded [Compound] by entry
molecular target: bovine intestinal alkaline phosphatase (Bos taurus (Bovine)); test: BiALP: conversion by bovine intestinal alkaline phosphatase; type: in vitro ADME; conditions: 2 μM substrate, 100 ng/mL iALP, Tris pH 7.8, 37° C., 60 minutes
Sequence (P19111 20-506): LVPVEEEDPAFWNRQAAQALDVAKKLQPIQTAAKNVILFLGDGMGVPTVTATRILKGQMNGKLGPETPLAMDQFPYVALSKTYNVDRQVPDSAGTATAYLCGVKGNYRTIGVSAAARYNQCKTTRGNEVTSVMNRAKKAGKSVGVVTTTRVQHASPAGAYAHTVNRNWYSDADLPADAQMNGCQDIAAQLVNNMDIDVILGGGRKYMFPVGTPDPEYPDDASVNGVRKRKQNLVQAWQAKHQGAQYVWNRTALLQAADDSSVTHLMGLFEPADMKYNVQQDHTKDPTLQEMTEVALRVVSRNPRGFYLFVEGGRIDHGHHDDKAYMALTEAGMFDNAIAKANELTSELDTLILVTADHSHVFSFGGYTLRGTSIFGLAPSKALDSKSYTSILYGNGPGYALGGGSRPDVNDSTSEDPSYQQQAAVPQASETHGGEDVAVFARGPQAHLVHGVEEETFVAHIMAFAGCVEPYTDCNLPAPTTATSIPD
measure.name: [Compound] (nM)

[[record]]
compound = "COC(=O)N[C@H](C(=O)N[C@@H](Cc1ccc(C#Cc2cnc(N3CC4CCC(C3)N4C3COC3)nc2)cc1)[C@H](CN(Cc1c(F)cc(-c2ccn(C(F)F)n2)cc1F)NC(=O)[C@@H](NC(=O)OC)C(C)(C)C(F)(F)F)OC(=O)CC(C)(C)c1c(CC(=O)NC2(C(=O)O)CCOCC2)cc(C)cc1OP(=O)(O)O)C(C)(C)C(F)(F)F [Example 31]"
measure_name = "[Compound]"
readout_unit = "nM"
value_reported = 2125.6

[[record]]
compound = "COC(=O)N[C@H](C(=O)N[C@@H](Cc1ccc(C#Cc2cnc(N3CC4CCC(C3)N4C3COC3)nc2)cc1)[C@H](CN(Cc1c(F)cc(-c2ccn(C(F)F)n2)cc1F)NC(=O)[C@@H](NC(=O)OC)C(C)(C)C(F)(F)F)OC(=O)CC(C)(C)c1c(C)cc(C(=O)O)cc1OP(=O)(O)O)C(C)(C)C(F)(F)F [Example 3]"
measure_name = "[Compound]"
readout_unit = "nM"
value_reported = 1197.7

[[record]]
compound = "COC(=O)N[C@H](C(=O)N[C@@H](Cc1ccc(C#Cc2cnc(N3CC4CCC(C3)N4C3COC3)nc2)cc1)[C@H](CN(Cc1c(F)cc(-c2ccn(C(F)F)n2)cc1F)NC(=O)[C@@H](NC(=O)OC)C(C)(C)C(F)(F)F)OC(=O)OCOC(=O)CC(C)(C)c1c(CC(=O)N2CCN(S(C)(=O)=O)CC2)cc(C)cc1OP(=O)(O)O)C(C)(C)C(F)(F)F [Example 84]"
measure_name = "[Compound]"
readout_unit = "nM"
value_reported = 1594.8

[[record]]
compound = "COC(=O)N[C@H](C(=O)N[C@@H](Cc1ccc(C#Cc2cnc(N3CC4CCC(C3)N4C3COC3)nc2)cc1)[C@H](CN(Cc1c(F)cc(-c2ccn(C(F)F)n2)cc1F)NC(=O)[C@@H](NC(=O)OC)C(C)(C)C(F)(F)F)OC(=O)CC(C)(C)c1c(CC(=O)N2CCN(CC(=O)O)CC2)cc(C)cc1OP(=O)(O)O)C(C)(C)C(F)(F)F [Example 82]"
measure_name = "[Compound]"
readout_unit = "nM"
value_reported = 1224.3

[[record]]
compound = "COC(=O)N[C@H](C(=O)N[C@@H](Cc1ccc(C#Cc2cnc(N3CC4CCC(C3)N4C3COC3)nc2)cc1)[C@H](CN(Cc1c(F)cc(-c2ccn(C(F)F)n2)cc1F)NC(=O)[C@@H](NC(=O)OC)C(C)(C)C(F)(F)F)OC(=O)CC(C)(C)c1c(CC(=O)N(CCCC(=O)O)CCC(=O)O)cc(C)cc1OP(=O)(O)O)C(C)(C)C(F)(F)F [Example 36]"
measure_name = "[Compound]"
readout_unit = "nM"
value_reported = 1383.3

[[record]]
compound = "COC(=O)N[C@H](C(=O)N[C@@H](Cc1ccc(C#Cc2cnc(N3CC4CCC(C3)N4C3COC3)nc2)cc1)[C@H](CN(Cc1c(F)cc(-c2ccn(C(F)F)n2)cc1F)NC(=O)[C@@H](NC(=O)OC)C(C)(C)C(F)(F)F)OC(=O)OCOC(=O)CC(C)(C)c1c(CC(=O)N[C@@H](CCC(N)=O)C(=O)O)cc(C)cc1OP(=O)(O)O)C(C)(C)C(F)(F)F [Example 87]"
measure_name = "[Compound]"
readout_unit = "nM"
value_reported = 1161.5

